- Test system: S. typhimurium/E. coli reverse mutation, colony counts
- ASSAY METHOD TEXT: Bacterial reverse mutation test (aka Ames test) summary data;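 further: His-minus Salmonella and trp-minus E. coli WP2 uvrA pKM101 with or without liver S9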
Records with an inconclusive call do not appear. Calls of active or inactive are those of the source. How the calls were made is not given here.
Respond with a class label; see yes (1) (active), no (0) (inactive)

Please indicate how the test categorized O=CC(=O)c1ccccc1 .
yes (1)

Moving on to CCCCCCOCC1CO1 (configuration not stated)
yes (1)

One more compound: COCC1CO1 (configuration not stated)
yes (1)

Follow-up item: c1ccc2c(c1)ccc1ncccc12
yes (1)

Moving on to CCOP(=S)(OCC)SC1OCCOC1SP(=S)(OCC)OCC (configuration not stated)
yes (1)

Moving on to CC1(C)CC(N=C=O)CC(C)(CN=C=O)C1 (configuration not stated)
no (0)

And what about the compound CCCCC(CC)COC(=O)CCCCC(=O)O (configuration not stated) ?
no (0)
